- assayed-system: HPK1 (Homo sapiens)
- Construct: A HiBiT tag was introduced by CRISPR on the N terminus of HPK1 in Jurkat cells; host or cells: Jurkat cells (ATCC TIB-152), monoclonal line with CRISPR knock-in of HiBiT at the endogenous HPK1 locus
- Sequence (Q92918 whole entry): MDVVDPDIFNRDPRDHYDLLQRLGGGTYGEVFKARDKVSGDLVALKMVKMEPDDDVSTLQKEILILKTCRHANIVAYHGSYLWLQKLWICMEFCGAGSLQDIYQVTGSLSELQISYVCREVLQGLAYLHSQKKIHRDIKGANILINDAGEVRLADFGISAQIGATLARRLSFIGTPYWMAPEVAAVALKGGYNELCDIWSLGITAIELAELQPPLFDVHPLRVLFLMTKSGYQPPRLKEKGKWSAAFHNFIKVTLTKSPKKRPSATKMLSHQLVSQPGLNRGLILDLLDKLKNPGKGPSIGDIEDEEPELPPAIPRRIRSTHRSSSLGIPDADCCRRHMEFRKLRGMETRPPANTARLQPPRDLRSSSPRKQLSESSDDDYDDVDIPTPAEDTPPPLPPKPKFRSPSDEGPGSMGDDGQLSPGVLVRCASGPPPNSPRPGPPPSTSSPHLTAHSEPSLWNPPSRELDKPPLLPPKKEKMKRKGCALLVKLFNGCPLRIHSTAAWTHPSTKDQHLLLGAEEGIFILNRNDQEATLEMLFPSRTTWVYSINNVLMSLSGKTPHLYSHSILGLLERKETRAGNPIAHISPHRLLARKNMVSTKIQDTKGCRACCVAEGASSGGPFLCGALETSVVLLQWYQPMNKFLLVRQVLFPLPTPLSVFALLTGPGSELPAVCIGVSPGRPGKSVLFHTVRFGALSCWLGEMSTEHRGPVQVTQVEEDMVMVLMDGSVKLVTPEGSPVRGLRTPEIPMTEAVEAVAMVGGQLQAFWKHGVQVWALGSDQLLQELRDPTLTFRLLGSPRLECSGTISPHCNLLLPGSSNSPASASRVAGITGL
- experimental-details: HPK1 Cellular HiBit Degradation Assay
- Type: cell-based
- assay-conditions: HiBiT HPK1 Jurkat cells, 24 hrs; concentration at which 50% of HPK1 was remaining; read-out: DC50 Category
measured-endpoint: DC50

CC(C)n1cnc2cc(-c3ccc4c(c3)N([C@H]3C[C@@H](N5CCC[C@H](F)C5)C3)C(=O)C43CCN(C(=O)C4(C)CCN(C(=O)C5CCN(c6ccc(C7CCC(=O)NC7=O)cc6)CC5)CC4)CC3)nc(NC3CC3)c21 (mixture of isomers) [Example 198] = 100 to 500 nM
CC(C)n1cnc2cc(-c3ccc4c(c3)N([C@H]3C[C@@H](N5CCCCC5)C3)C(=O)C43CCN(C(=O)C4(C(F)(F)F)CCN(C(=O)C5CCN(c6ccc(C7CCC(=O)NC7=O)cn6)CC5)CC4)CC3)nc(NC3CC3)c21 (mixture of isomers) [Example 275] = 100 to 500 nM
COC1CN(C(=O)C2CCN(c3ccc(C4CCC(=O)NC4=O)cc3)CC2)CCC1C(=O)N1CCC2(CC1)C(=O)N([C@H]1C[C@@H](N3CCCCC3)C1)c1cc(-c3cc4ncn(C(C)C)c4c(NC4CC4)n3)ccc12 (mixture of isomers) [Example 257] = < 100 nM

The following compounds each have a reported value; give each one's DC50.
1. CC(C)n1cnc2cc(-c3ccc4c(c3)N([C@H]3C[C@@H](N5CCCCC5)C3)C(=O)C43CCN(C(=O)C4CCN(C(=O)[C@H]5CC[C@H](n6cc7cc(C8CCC(=O)NC8=O)ccc7n6)CC5)CC4)CC3)nc(NC3CC3)c21 (stereo partly shown) [Example 179]
2. CC(C)n1cnc2cc(-c3ccc4c(c3)N([C@H]3C[C@@H](N5CCCCC5)C3)C(=O)C43CCN(C(=O)C4CCN(CCC5CCN(c6ccc(C7CCC(=O)NC7=O)cn6)CC5)CC4)CC3)nc(Nc3ccccc3F)c21 (mixture of isomers) [Example 98]
3. CC(C)n1cnc2cc(-c3ccc4c(c3)N([C@H]3C[C@@H](N5CCCCC5)C3)C(=O)C43CCN(C(=O)C4CCN(C(=O)[C@H]5CC[C@H](C(=O)N6CCc7ccc(C8CCC(=O)NC8=O)cc7C6)CC5)CC4)CC3)nc(Nc3ccccc3F)c21 (mixture of isomers) [Example 50]
4. CC(C)n1cnc2cc(-c3ccc4c(c3)N([C@H]3C[C@@H](N5CCCCC5)C3)C(=O)C43CCN(C(=O)C4(C)CCN(C(=O)C5CCN(c6ccc(C7CCC(=O)NC7=O)nc6)CC5)CC4)CC3)nc(Nc3ccccc3F)c21 (mixture of isomers) [Example 119]
5. CC(C)n1cnc2cc(-c3ccc4c(c3)N([C@H]3C[C@@H](N5CCCCC5)C3)C(=O)C43CCN(C(=O)CC4CCN(C(=O)[C@H]5CC[C@H](Oc6ccc(C7CCC(=O)NC7=O)cn6)CC5)CC4)CC3)nc(NC3CC3)c21 (stereo partly shown) [Example 161]
6. CC(C)n1cnc2cc(-c3ccc4c(c3)N([C@H]3C[C@@H](N5CCCCC5)C3)C(=O)C43CCN(C(=O)[C@@]45C[C@@H]4CN(C(=O)C4CCN(c6ccc(C7CCC(=O)NC7=O)cn6)CC4)C5)CC3)nc(NC3CC3)c21 (mixture of isomers) [Example 259]
7. CC(C)n1cnc2cc(-c3ccc4c(c3)N([C@H]3C[C@@H](N5CCCCC5)C3)C(=O)C43CCN(C(=O)C4(C)CCN(C(=O)C5CCN(c6ccc(C7CCC(=O)NC7=O)cn6)CC5)CC4)CC3)nc(OC3CC3)c21 (stereo partly shown) [Example 178]
8. COC1CC(C(=O)N2CCC3(CC2)C(=O)N([C@H]2C[C@@H](N4CCCCC4)C2)c2cc(-c4cc5ncn(C(C)C)c5c(NC5CC5)n4)ccc23)CN(C(=O)C2CCN(c3ccc(C4CCC(=O)NC4=O)cn3)CC2)C1 (mixture of isomers) [Example 256]

RESULT:
["100 to 500 nM", "500 to 1000 nM", "< 100 nM", "< 100 nM", "< 100 nM", "< 100 nM", "< 100 nM", "100 to 500 nM"]

The following compounds each have a reported value; give each one's DC50.
1. CC(C)n1cnc2cc(-c3ccc4c(c3)N([C@H]3C[C@@H](N5CCCCC5)C3)C(=O)C43CCN(C(=O)[C@@H]4CCCN(C(=O)CC5CCN(c6ccc(C7CCC(=O)NC7=O)cn6)CC5)C4)CC3)nc(NC3CC3)c21 (mixture of isomers) [Example 235]
2. Cc1cc(N2CCC(C(=O)N3CCC(C)(C(=O)N4CCC5(CC4)C(=O)N([C@H]4C[C@@H](N6CCCCC6)C4)c4cc(-c6cc7ncn(C(C)C)c7c(NC7CC7)n6)ccc45)CC3)CC2)ncc1C1CCC(=O)NC1=O (mixture of isomers) [Example 189]
3. CC(C)n1cnc2cc(-c3ccc4c(c3)N([C@H]3C[C@@H](N5CCCCC5)C3)C(=O)C43CCN(C(=O)[C@@H]4CCN(C(=O)[C@H]5CC[C@H](Nc6ccc(C7CCC(=O)NC7=O)cc6)CC5)C4)CC3)nc(NC3CC3)c21 (mixture of isomers) [Example 2]
4. CC(C)n1cnc2cc(-c3ccc4c(c3)N([C@H]3C[C@@H](N5CCCCC5)C3)C(=O)C43CCN(C(=O)C4(C)CCN(C(=O)C5CCN(c6ccc(C7CCC(=O)NC7=O)cn6)CC5)CC4)CC3)nc(N3CCCC3)c21 (stereo partly shown) [Example 170]
5. CC(C)n1cnc2cc(-c3ccc4c(c3)N([C@H]3C[C@@H](N5CCCCC5)C3)C(=O)C43CCN(C(=O)C4(C(F)F)CCN(C(=O)C5CCN(c6ccc(C7CCC(=O)NC7=O)cn6)CC5)CC4)CC3)nc(NC3CC3)c21 (mixture of isomers) [Example 276]

RESULT:
1. < 100 nM
2. < 100 nM
3. < 100 nM
4. 100 to 500 nM
5. < 100 nM
